Data origin: patent US10654868B2

molecular target: Akt1 (Homo sapiens, UniProt P31749)
Sequence (P31749 whole entry): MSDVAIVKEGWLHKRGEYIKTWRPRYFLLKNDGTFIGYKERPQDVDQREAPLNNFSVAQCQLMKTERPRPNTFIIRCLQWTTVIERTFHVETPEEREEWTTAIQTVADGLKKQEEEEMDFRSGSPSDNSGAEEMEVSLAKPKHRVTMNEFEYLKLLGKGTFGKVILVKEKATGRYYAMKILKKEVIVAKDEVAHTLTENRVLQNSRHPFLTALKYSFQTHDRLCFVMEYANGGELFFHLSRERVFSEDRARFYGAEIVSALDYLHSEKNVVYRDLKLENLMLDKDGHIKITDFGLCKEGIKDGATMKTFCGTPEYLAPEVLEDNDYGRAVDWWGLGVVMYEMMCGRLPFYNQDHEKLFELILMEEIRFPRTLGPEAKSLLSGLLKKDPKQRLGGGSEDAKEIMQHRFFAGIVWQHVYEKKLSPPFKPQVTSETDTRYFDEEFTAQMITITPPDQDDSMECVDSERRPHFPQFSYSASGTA
pIC50: −log10 of the molar value.
# label = criterion met if pIC50 >= 9 else criterion not met

As a guide, the following entries are already answered.
- NC[C@H](Cc1cccc(F)c1)NC(=O)c1cc2c(s1)C(F)(F)CCn1ncc(Cl)c1-2: criterion not met
- NC[C@H](Cc1cc(F)cc(F)c1)NC(=O)c1cc2c(s1)CCCn1ncc(Br)c1-2: criterion met
- NC[C@H](Cc1cccc(F)c1)NC(=O)c1cc2c(s1)CCCn1ncc(F)c1-2: criterion not met
- NC[C@H](Cc1cccc(F)c1)NC(=O)c1cc2c(s1)CCCn1ncc(C(F)(F)F)c1-2: criterion not met
- NC[C@H](Cc1cccc(F)c1)NC(=O)c1cc2c(s1)C(=O)CCn1ncc(Cl)c1-2: criterion not met
- Cc1cnn2c1-c1cc(C(=O)N[C@H](CN)Cc3ccc(F)c(F)c3)sc1CCC2: criterion met
- NC[C@@H](NC(=O)c1cc2c(s1)CCCn1ncc(Cl)c1-2)c1ccccc1: criterion not met
- NC[C@H](Cc1ccc(F)c(F)c1)NC(=O)c1cc2c(s1)OCCn1ncc(Cl)c1-2: criterion met

# input Please indicate if the recorded pIC50 for `NC[C@H](Cc1cccc(F)c1)NC(=O)c1cc2c(s1)CCCn1ncc(-c3ccccc3)c1-2` meets or exceeds 9.
# output criterion not met

# input Please indicate if the recorded pIC50 for `NC[C@H](Cc1cccc(F)c1)NC(=O)c1cc2n(n1)CCCn1ncc(Cl)c1-2` meets or exceeds 9.
# output criterion not met
